Tested on: 991263-137-R1-J2-PDC complex spheroid viability
Protocol: Anticancer human tumor 991263-137-R1-J2-PDC patient-derived colon adenocarcinoma cell line growth inhibition [POLQ]
Cond: second compound 0.316 µM; first compound 0.1 µM; stronger effect = lower value
Measured viability, T/C of individual entries
Observed Property: viability, T/C (%)

{"columns": ["Molecule", "Recorded Value"],
 "data": [
  ["CC[C@@]1(O)C(=O)OCc2c1cc1n(c2=O)Cc2cc3c(CN(C)C)c(O)ccc3nc2-1 + Nc1ccc(C#CCN(C(=O)Cc2ncc(C(F)(F)F)cc2C(F)(F)F)c2ccc(F)cc2)nn1", 76.8],
  ["C#Cc1c(F)ccc2cc(O)cc(-c3ncc4c(N5CC6CCC(C5)N6)nc(OCC56CCCN5CC(F)C6)nc4c3F)c12 (stereo not given) + Nc1ccc(C#CCN(C(=O)Cc2ncc(C(F)(F)F)cc2C(F)(F)F)c2ccc(F)cc2)nn1", 99.8],
  ["CC(C)n1c(=O)n(C)c2cnc3cc(F)c(-c4ccc(OCCCN5CCCCC5)nc4)cc3c21 + COC1C(OC(N)=O)C(O)C(Oc2ccc3c(O)c(NC(=O)c4ccc(O)c(CC=C(C)C)c4)c(=O)oc3c2C)OC1(C)C", 114],
  ["Cn1ncnc1[C@H]1c2n[nH]c(=O)c3cc(F)cc(c23)N[C@@H]1c1ccc(F)cc1 + Cc1cccc(N(C)C(=O)C2C(O)CCN2c2nc(C)cc(C(F)(F)F)c2C#N)c1", 99.4],
  ["O=c1[nH]cc(F)c(=O)[nH]1 + Cc1cccc(N(C)C(=O)C2C(O)CCN2c2nc(C)cc(C(F)(F)F)c2C#N)c1", 101]
]}

---

System: 991263-137-R1-J2-PDC complex spheroid viability
Protocol: Anticancer human tumor 991263-137-R1-J2-PDC cell line growth inhibition [POLQ];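 also: spheroids exposed to compounds for 7 days before readout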;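 as to viability, T/C: 100% = DMSO vehicle control viability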
Cond: second compound 0.316 µM; first compound 10 µM; stronger effect = lower value
Observed Property: viability, T/C (%)

{"columns": ["Molecule", "Recorded Value"],
 "data": [
  ["CC1COCCN1c1cc(-c2ccnn2C)c2ccnc(-c3ccn[nH]3)c2n1 (configuration not stated) + Cc1cccc(N(C)C(=O)C2C(O)CCN2c2nc(C)cc(C(F)(F)F)c2C#N)c1", 28.8],
  ["COc1ccc([C@@H](O)c2cc(-c3ncnc4cc(N5CCOCC5)ccc34)c(F)cc2Cl)nn1 + COC1C(OC(N)=O)C(O)C(Oc2ccc3c(O)c(NC(=O)c4ccc(O)c(CC=C(C)C)c4)c(=O)oc3c2C)OC1(C)C", 33],
  ["COc1cc2cc(C(=O)CCC(=O)O)sc2cc1OC + Nc1ccc(C#CCN(C(=O)Cc2ncc(C(F)(F)F)cc2C(F)(F)F)c2ccc(F)cc2)nn1", 77.5],
  ["CC1COCCN1c1cc(C2(O)CC3CCC(C2)O3)c2cnn(-c3ccn[nH]3)c2n1 (configuration not stated) + COC1C(OC(N)=O)C(O)C(Oc2ccc3c(O)c(NC(=O)c4ccc(O)c(CC=C(C)C)c4)c(=O)oc3c2C)OC1(C)C", 26.1],
  ["Nc1ccn(C2OC(CO)C(O)C2(F)F)c(=O)n1 (configuration not stated) + Nc1ccc(C#CCN(C(=O)Cc2ncc(C(F)(F)F)cc2C(F)(F)F)c2ccc(F)cc2)nn1", 43.1],
  ["CCc1cc2c(N3CCc4c(cc(Cn5ccnc5)cc4-c4cn(C)nc4C(F)(F)F)C3=O)cc(C)nc2c(OC)n1 + COC1C(OC(N)=O)C(O)C(Oc2ccc3c(O)c(NC(=O)c4ccc(O)c(CC=C(C)C)c4)c(=O)oc3c2C)OC1(C)C", 88.9],
  ["O=c1[nH]cc(F)c(=O)[nH]1 + Nc1ccc(C#CCN(C(=O)Cc2ncc(C(F)(F)F)cc2C(F)(F)F)c2ccc(F)cc2)nn1", 86.1],
  ["COc1cc(C2c3cc4c(cc3C(OC3OC5COC(C)OC5C(O)C3O)C3COC(=O)C23)OCO4)cc(OC)c1O (configuration not stated) + Cc1cccc(N(C)C(=O)C2C(O)CCN2c2nc(C)cc(C(F)(F)F)c2C#N)c1", 87.2],
  ["COc1cc(C2c3cc4c(cc3C(OC3OC5COC(C)OC5C(O)C3O)C3COC(=O)C23)OCO4)cc(OC)c1O (configuration not stated) + COC1C(OC(N)=O)C(O)C(Oc2ccc3c(O)c(NC(=O)c4ccc(O)c(CC=C(C)C)c4)c(=O)oc3c2C)OC1(C)C", 73.1],
  ["C=CC(=O)N1CCN(c2nc(=O)n(-c3c(C)ccnc3C(C)C)c3nc(-c4c(O)cccc4F)c(F)cc23)C(C)C1 (configuration not stated) + Nc1ccc(C#CCN(C(=O)Cc2ncc(C(F)(F)F)cc2C(F)(F)F)c2ccc(F)cc2)nn1", 106],
  ["CC(C)n1c(=O)n(C)c2cnc3cc(F)c(-c4ccc(OCCCN5CCCCC5)nc4)cc3c21 + Cc1cccc(N(C)C(=O)C2C(O)CCN2c2nc(C)cc(C(F)(F)F)c2C#N)c1", 80.4],
  ["C=CC(=O)N1CCN(c2nc(=O)n(-c3c(C)ccnc3C(C)C)c3nc(-c4c(O)cccc4F)c(F)cc23)C(C)C1 (configuration not stated) + Cc1cccc(N(C)C(=O)C2C(O)CCN2c2nc(C)cc(C(F)(F)F)c2C#N)c1", 104]
]}

---

Test system: 991263-137-R1-J2-PDC complex spheroid viability
Protocol: Anticancer human tumor 991263-137-R1-J2-PDC cell line growth inhibition [POLQ];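 also: spheroids exposed to compounds for 7 days before readout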;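 as to viability, T/C: 100% = DMSO vehicle control viability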
Cond: second compound 3.16 µM; first compound 0.000316 µM; stronger effect = lower value
A collection of compounds and their measured viability, T/C

{"columns": ["Compound", "viability, T/C, %"],
 "data": [
  ["CC[C@@]1(O)C(=O)OCc2c1cc1n(c2=O)Cc2cc3c(CN(C)C)c(O)ccc3nc2-1 + Nc1ccc(C#CCN(C(=O)Cc2ncc(C(F)(F)F)cc2C(F)(F)F)c2ccc(F)cc2)nn1", 102],
  ["Cn1ncnc1[C@H]1c2n[nH]c(=O)c3cc(F)cc(c23)N[C@@H]1c1ccc(F)cc1 + COC1C(OC(N)=O)C(O)C(Oc2ccc3c(O)c(NC(=O)c4ccc(O)c(CC=C(C)C)c4)c(=O)oc3c2C)OC1(C)C", 95.9],
  ["Cn1ncnc1[C@H]1c2n[nH]c(=O)c3cc(F)cc(c23)N[C@@H]1c1ccc(F)cc1 + Nc1ccc(C#CCN(C(=O)Cc2ncc(C(F)(F)F)cc2C(F)(F)F)c2ccc(F)cc2)nn1", 101]
]}

---

# reported IC50; entries follow
Test system: 991263-137-R1-J2-PDC complex spheroid viability
Protocol: Anticancer human tumor 991263-137-R1-J2-PDC cell line growth inhibition [POLQ];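 also: spheroids exposed to compounds for 7 days before readout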
Cond: curve of first compound; second compound 1 µM

{"columns": ["Molecule", "IC50"],
 "data": [
  ["CCCS(=O)(=O)Nc1ccc(F)c(C(=O)c2c[nH]c3ncc(-c4ccc(Cl)cc4)cc23)c1F + Nc1ccc(C#CCN(C(=O)Cc2ncc(C(F)(F)F)cc2C(F)(F)F)c2ccc(F)cc2)nn1", "> 10 µM"],
  ["CC1COCCN1c1cc(C2(S(C)(=N)=O)CC2)nc(-c2ccnc3[nH]ccc23)n1 (stereo not given) + Cc1cccc(N(C)C(=O)C2C(O)CCN2c2nc(C)cc(C(F)(F)F)c2C#N)c1", "> 10 µM"],
  ["COc1cc(C2c3cc4c(cc3C(OC3OC5COC(C)OC5C(O)C3O)C3COC(=O)C23)OCO4)cc(OC)c1O (stereo not given) + COC1C(OC(N)=O)C(O)C(Oc2ccc3c(O)c(NC(=O)c4ccc(O)c(CC=C(C)C)c4)c(=O)oc3c2C)OC1(C)C", "> 10 µM"],
  ["CC1COCCN1c1cc(C2(S(C)(=N)=O)CC2)nc(-c2ccnc3[nH]ccc23)n1 (stereo not given) + Nc1ccc(C#CCN(C(=O)Cc2ncc(C(F)(F)F)cc2C(F)(F)F)c2ccc(F)cc2)nn1", "> 10 µM"],
  ["COc1ccc([C@@H](O)c2cc(-c3ncnc4cc(N5CCOCC5)ccc34)c(F)cc2Cl)nn1 + COC1C(OC(N)=O)C(O)C(Oc2ccc3c(O)c(NC(=O)c4ccc(O)c(CC=C(C)C)c4)c(=O)oc3c2C)OC1(C)C", "2.94 µM"]
]}

---

viability, T/C values by entry
Test system: 991263-137-R1-J2-PDC complex spheroid viability
Protocol: Anticancer human tumor 991263-137-R1-J2-PDC cell line growth inhibition [POLQ];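 also: spheroids exposed to compounds for 7 days before readout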;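 as to viability, T/C: 100% = DMSO vehicle control viability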
Cond: second compound 1 µM; first compound 0.0316 µM; stronger effect = lower value
Observed Property: viability, T/C (%)

{"columns": ["Compound", "Measured Target", "Recorded Value"],
 "data": [
  ["COc1cccc2c1C(=O)c1c(O)c3c(c(O)c1C2=O)CC(O)(C(=O)CO)CC3OC1CC(N)C(O)C(C)O1 (stereo not given) + COC1C(OC(N)=O)C(O)C(Oc2ccc3c(O)c(NC(=O)c4ccc(O)c(CC=C(C)C)c4)c(=O)oc3c2C)OC1(C)C", "991263-137-R1-J2-PDC complex spheroid viability", 101],
  ["Nc1ccn(C2OC(CO)C(O)C2(F)F)c(=O)n1 (stereo not given) + Nc1ccc(C#CCN(C(=O)Cc2ncc(C(F)(F)F)cc2C(F)(F)F)c2ccc(F)cc2)nn1", "991263-137-R1-J2-PDC complex spheroid viability", 92.6],
  ["CCc1c2c(nc3ccc(O)cc13)-c1cc3c(c(=O)n1C2)COC(=O)[C@]3(O)CC + Cc1cccc(N(C)C(=O)C2C(O)CCN2c2nc(C)cc(C(F)(F)F)c2C#N)c1", "991263-137-R1-J2-PDC complex spheroid viability", 64.3],
  ["C=CCn1c(=O)c2cnc(Nc3ccc(N4CCN(C)CC4)cc3)nc2n1-c1cccc(C(C)(C)O)n1 + Nc1ccc(C#CCN(C(=O)Cc2ncc(C(F)(F)F)cc2C(F)(F)F)c2ccc(F)cc2)nn1", "991263-137-R1-J2-PDC complex spheroid viability", 103],
  ["O=C(Nc1ccc(O)c(NS(=O)(=O)c2ccc(F)cc2)c1)c1ccc(-c2ccccc2)cc1 + COC1C(OC(N)=O)C(O)C(Oc2ccc3c(O)c(NC(=O)c4ccc(O)c(CC=C(C)C)c4)c(=O)oc3c2C)OC1(C)C", "991263-137-R1-J2-PDC complex spheroid viability", 119]
]}

meta.source: PubChem BioAssay AID1963828
